Assay: qHTS assay to identify small molecule antagonists of the sonic hedgehog signaling (Shh) pathway (AID 1259369); note: nearly all actives have a fitted effect of over 45% in size
Conditions: NIH/3T3 Gli1-Luc reporter, Shh antagonist, luminescence 24 h; series mostly up to 92.4 µM
Results filed as inconclusive are left out. The source made the active and inactive calls. Calls come from the whole dose curve.
The reply should be one of these categories: Y for active, N for inactive

Some solved entries appear below for comparison.
[
  {
    "STRUCTURE NOTATION": "[O]=[Cd]",
    "LABEL CLASS": "N"
  },
  {
    "STRUCTURE NOTATION": "CCOP(=S)(OCC)Oc1nc(Cl)n(C(C)C)n1",
    "LABEL CLASS": "N"
  },
  {
    "STRUCTURE NOTATION": "Nc1cc(Cl)ccc1O",
    "LABEL CLASS": "Y"
  },
  {
    "STRUCTURE NOTATION": "O=C1CN=C(c2ccccc2)c2cc([N+](=O)[O-])ccc2N1",
    "LABEL CLASS": "N"
  },
  {
    "STRUCTURE NOTATION": "c1cc[c]([Hg][c]2ccccc2)cc1",
    "LABEL CLASS": "Y"
  },
  {
    "STRUCTURE NOTATION": "CCCCCCI",
    "LABEL CLASS": "N"
  },
  {
    "STRUCTURE NOTATION": "CCCCC(=O)Cl",
    "LABEL CLASS": "N"
  },
  {
    "STRUCTURE NOTATION": "C[N+](C)=CCl",
    "LABEL CLASS": "N"
  }
]

*Q* Hi, do you know how "NC(=O)c1cc([N+](=O)[O-])cc([N+](=O)[O-])c1" came out in this test?
*A* N

*Q* I would be grateful if you could indicate the recorded call for "Cc1cnc[nH]1" .
*A* N

*Q* I would be grateful if you could indicate the recorded call for "Cc1ncc(CNC(=O)N(CCCl)N=O)c(N)n1" .
*A* N
